molecules and their reported ΔLag
Molecular target: Aβ1-40 (Homo sapiens, UniProt P05067)
Sequence (P05067 672-711): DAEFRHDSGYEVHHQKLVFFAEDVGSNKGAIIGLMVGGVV
Type: biochemical
Design: unit not given here
Settings: Table XI; 5 μM test compound
Square brackets hold non-standard residues; d marks the D form. Peptide text beside a SMILES is read from it. * marks the point of attachment. Acetyl(3-pyridyl) = O=C(Cc1cccnc1)*; Benzoyl(4-OH) = O=C(c1ccc(O)cc1)*; d3Pal = N[C@H](Cc1cccnc1)C(=O)O; X1 = O=C(c1cc2cc(O)ccc2cc1O)*
# print the numeric value only

CC(C)C[C@@H](NC(=O)[C@H](NC(=O)[C@@H](Cc1ccccc1)NC(=O)[C@@H](Cc1ccccc1)NC(=O)[C@@H](C)NC(=O)Cc1cccnc1)C(C)C)C(N)=O [PPI-730, 3-Pyridylacetyl-d(AFFVL)-nh2] ({Acetyl(3-pyridyl)}-[dA][dF][dF][dV][dL]-NH2)    2
CC(C)C[C@@H](NC(=O)[C@H](NC(=O)[C@@H](Cc1ccccc1)NC(=O)[C@@H](Cc1ccccc1)NC(=O)[C@@H](Cc1cccnc1)NC(=O)c1ccc(O)cc1)C(C)C)C(N)=O [PPI-665, 4-Hydroxybenzoyl-d(Pal-FFVL)-nh2] ({Benzoyl(4-OH)}-[d3Pal][dF][dF][dV][dL]-NH2)    2
CC(C)C[C@@H](NC(=O)c1ccc(O)cc1)C(=O)N[C@@H](C(=O)N[C@H](Cc1ccc(O)cc1)C(=O)N[C@H](Cc1ccc(O)cc1)C(=O)N[C@H](C)C(N)=O)C(C)C [PPI-775, 4-Hydroxybenzoyl-d(LVYYA)-nh2] ({Benzoyl(4-OH)}-[dL][dV][dY][dY][dA]-NH2)    1

Task: Recorded ΔLag for CC(C)C[C@@H](NC(=O)c1ccc(O)cc1)C(=O)N[C@@H](C(=O)N[C@H](Cc1ccc(O)cc1)C(=O)N[C@H](Cc1ccccc1)C(=O)N[C@H](C)C(N)=O)C(C)C [PPI-774, 4-Hydroxybenzoyl-d(LVYFA)-nh2] ({Benzoyl(4-OH)}-[dL][dV][dY][dF][dA]-NH2) , please?
Output: 1

Task: And the next one, CC(C)C[C@@H](NC(=O)[C@H](NC(=O)[C@@H](Cc1ccccc1)NC(=O)[C@@H](Cc1ccccc1)NC(=O)CN)C(C)C)C(N)=O [PPI-733, H-Glycyl-d(FFVL)-nh2] (H-G[dF][dF][dV][dL]-NH2) ?
Output: 0

Task: And the next one, CC(C)C[C@@H](NC(=O)[C@H](NC(=O)[C@@H](Cc1ccccc1)NC(=O)[C@@H](Cc1ccccc1)NC(=O)[C@@H](Cc1cccnc1)NC(=O)c1cc2cc(O)ccc2cc1O)C(C)C)C(N)=O [PPI-664, 3,7-Dihidroxy-2-naphthol-d(Pal-FFVL)-nh2] (X1-[d3Pal][dF][dF][dV][dL]-NH2) ?
Output: 2

====

Target: Aβ1-40 (Homo sapiens)
Assay type: biochemical
Set-up: unit not given here
Conditions: Table XI; 0.5 μM test compound
Square brackets hold non-standard residues; d marks the D form. Peptide text beside a SMILES is read from it. * marks the point of attachment. Benzoyl(4-OH) = O=C(c1ccc(O)cc1)*; d3Pal = N[C@H](Cc1cccnc1)C(=O)O; X1 = O=C(c1cc2cc(O)ccc2cc1O)*
molecules and their reported ΔLag
# print the numeric value only

CC(C)C[C@@H](NC(=O)[C@H](NC(=O)[C@@H](Cc1ccccc1)NC(=O)[C@@H](Cc1ccccc1)NC(=O)[C@@H](Cc1cccnc1)NC(=O)c1cc2cc(O)ccc2cc1O)C(C)C)C(N)=O [PPI-664, 3,7-Dihidroxy-2-naphthol-d(Pal-FFVL)-nh2] (X1-[d3Pal][dF][dF][dV][dL]-NH2)    0
CC(C)C[C@@H](N)C(=O)N[C@@H](C(=O)N[C@H](Cc1ccccc1)C(=O)N[C@H](Cc1ccccc1)C(=O)N[C@H](Cc1ccccc1)C(N)=O)C(C)C [PPI-656, H-d(LVFFF)-nh2] (H-[dL][dV][dF][dF][dF]-NH2)    2.3
CC(C)C[C@@H](N)C(=O)N[C@@H](C(=O)N[C@H](Cc1ccccc1)C(=O)N[C@H](Cc1ccccc1)C(=O)N[C@@H](C(N)=O)C(C)C)C(C)C [PPI-657, H-d(LVFFV)-nh2] (H-[dL][dV][dF][dF][dV]-NH2)    1.7

Task: Recorded ΔLag for CC(C)C[C@@H](NC(=O)[C@H](NC(=O)[C@@H](Cc1ccccc1)NC(=O)[C@@H](Cc1ccccc1)NC(=O)[C@@H](Cc1cccnc1)NC(=O)c1ccc(O)cc1)C(C)C)C(N)=O [PPI-665, 4-Hydroxybenzoyl-d(Pal-FFVL)-nh2] ({Benzoyl(4-OH)}-[d3Pal][dF][dF][dV][dL]-NH2) , please?
Output: 1.5
